Target: T1, His6-tagged Bcl-XL (residues 1-208, N52D, N66D) (human), Q07817
T1 chain: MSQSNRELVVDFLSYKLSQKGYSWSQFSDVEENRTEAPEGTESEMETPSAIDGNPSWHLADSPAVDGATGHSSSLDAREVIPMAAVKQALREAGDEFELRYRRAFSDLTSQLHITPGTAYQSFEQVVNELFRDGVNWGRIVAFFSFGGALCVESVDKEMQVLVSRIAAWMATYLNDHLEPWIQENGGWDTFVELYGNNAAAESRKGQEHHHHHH
Assay: ITC, 25 °C
Reported ΔH is given for each of the following binders.
State the value with its unit after it.

[[record]]
binder = "GSGTMENLSRRLKVTGDLADIMSGQT (modifications not checked) [Beclin 1 BH3D-derived peptide F123A]"
assay_result = "-7.34 kcal/mol"

[[record]]
binder = "GSGTMENLSRRLKVTGDLFDIMSGQT (modifications not checked) [Beclin 1 BH3D peptide, wild type]"
assay_result = "-10.4 kcal/mol"

[[record]]
binder = "GSGTMENASRRLKVTGDLFDIMSGQT (modifications not checked) [Beclin 1 BH3D-derived peptide L112A]"
assay_result = "-10.1 kcal/mol"


For the next question, use this binder.
[Q] Please give the documented ΔH of GSGTMENLSRRLAVTGDLFDIMSGQT (modifications not checked) [Beclin 1 BH3D-derived peptide K117A]
[A] -9 kcal/mol
